Sourced from paper PMC4601027

# STUDY_TARGET: CPEB1 pS184 peptide (UniProt Q9BZB8, phosphoserine at 184)
# TEST_METHOD_NOTES: ITC
PARAMETER_MEASURED: pKd
API: returns pKd as number; meaning -log10 of concentration in mol/L.

// pKd value for MADEEKLPPGWEKRMSRSSGRVYYFNHITNASQWERPSGNS (domain or fragment) [Pin1 WW domain] : 4.54
